These entries and their values trace back to BindingDB's records for doi:10.1016/j.chembiol.2004.12.010.

Molecular target: UniProtKB P29274
Sequence (P29274 whole entry): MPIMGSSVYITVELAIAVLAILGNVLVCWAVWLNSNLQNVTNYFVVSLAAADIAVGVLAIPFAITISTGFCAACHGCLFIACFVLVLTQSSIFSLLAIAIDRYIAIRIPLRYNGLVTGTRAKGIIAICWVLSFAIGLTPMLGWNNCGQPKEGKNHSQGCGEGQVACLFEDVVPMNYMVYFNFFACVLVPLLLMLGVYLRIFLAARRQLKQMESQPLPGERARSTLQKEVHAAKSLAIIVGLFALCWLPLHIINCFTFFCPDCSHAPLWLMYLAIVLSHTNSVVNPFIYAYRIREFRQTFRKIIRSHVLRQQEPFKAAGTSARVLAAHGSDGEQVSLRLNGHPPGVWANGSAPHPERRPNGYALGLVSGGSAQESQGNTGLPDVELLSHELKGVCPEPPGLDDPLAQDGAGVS
Assay: Binding Assay
Assay readout: Ki

Per the record, NCCCCNC(=O)[C@H]1O[C@@H](n2cnc3c(N)ncnc32)[C@H](O)[C@@H]1O has Ki of > 100 µM

Per the record, Cc1ccccc1CNc1ncnc2c1ncn2[C@@H]1O[C@H](C(=O)NCCO)[C@@H](O)[C@H]1O has Ki of > 10 µM

Per the record, CNc1nc(C(=N)N)nc2c1ncn2[C@@H]1O[C@H](CO)[C@@H](O)[C@H]1O has Ki of > 10 µM

Per the record, CCNC(=O)[C@H]1O[C@@H](n2cnc3c(N=C(N)N)ncnc32)[C@H](O)[C@@H]1O has Ki of 0.628 µM
